test system: Leishmania donovani; assay: Leishmania intramacrophage assay; format: functional, organism-based; set-up: scale not given: in the data most compounds retested in dose-response had high values; conditions: 30.3 µM; […]
The campaign covered roughly 69,000 compounds. About 1,000 (1.4%) showed an effect of 50% or more. The sample holds strong results, similar compounds and a random draw of the others, so the mix is not that of the screen.
observationType: Percent Effect (%)

>>> df
                                    compound  unitinfo  endpointvalue
 0             Cc1ccc(CN2CCC(c3cnccn3)CC2)s1         %          12.08
 1  CN1CCC(c2nc3ccc(-c4cccc(F)c4)cn3n2)CC1.O=C(O)C(F)(F)F         %          56.26
 2             CN1CCC(N2Cc3nc(N)ncc3C2=O)CC1         %          54.63
 3  CCN1CCC(c2nc3ccc(NC4CCC4)cn3n2)CC1.O=C(O)C(F)(F)F         %          53.52
 4   Cc1nc(NCc2ccc(F)cc2)cc(C(=O)N2CCOCC2)n1         %          32.39
 5           Cc1nonc1OCCNC(=O)COc1ccc(F)cc1F         %          56.45
 6  Cn1cc(C(=O)OC2CN(c3nc4c(C(F)(F)F)cccc4s3)C2)nn1         %          15.05
 7      COc1ccc(OCCN(C)S(=O)(=O)N2CCOCC2)cc1         %             11
 8         Cc1nonc1OCCNC(=O)COc1ccc(Cl)cc1Cl         %          19.12
 9  CC(C)N1CCCC(C(=O)N2CCN(c3nsc4ccccc34)CC2)C1 (stereo not given)         %          77.99
10  Cc1ccc(CN2CCCC(c3cnccn3)C2)s1 (stereo not given)         %          27.06
11  CCCN1CCC(c2nc3ccc(-c4ccncc4)cn3n2)CC1.O=C(O)C(F)(F)F.O=C(O)C(F)(F)F         %          22.97
12  CCc1ncc(CN[C@@H]2CCCN(C(C)=O)[C@H]2c2ccc(C)s2)cn1.Cl         %          12.48
13  NC(=O)N1CCCC(C(=O)N2CCN(c3nsc4ccccc34)CC2)C1 (stereo not given)         %          34.33
14  CCN1CC(C(=O)N2CCN(c3nsc4ccccc34)CC2)CCC1=O (stereo not given)         %           22.5

Where do these numbers come from? They come from ChEMBL document CHEMBL3988442.
